# credit: patent US7825151B2

Each entry below carries its reported inhibition at 0.2 µM.
ASSAYED_SYSTEM: human CB1 receptor (Homo sapiens)
Construct: expressed in transfected cells; host or cells: SK-N-MC cells, stably transfected with pcDNA3 CB-1 (human)
METHOD_SUMMARY: Binding assay for CB1 ([3H]-CP-55,940 displacement, SK-N-MC membranes)
CONDITION_SUMMARY: test concentration 0.2 μM (footnote 3); read-out: CB1 receptor binding percent inhibition
Please reply with the bare figure in % and do not write the unit itself.

O=C(c1nn(-c2ccc(Cl)cc2Cl)c2c1CCCCC/C2=C\c1ccc(F)cc1)N1CCCCC1 | 50
C[C@@H](NC(=O)c1nn(-c2ccc(Cl)cc2Cl)c2c1CCCCC/C2=C\c1ccc(F)cc1)c1ccccn1 | 90
O=C(NNc1ccc(Cl)cc1Cl)c1nn(-c2ccc(Cl)cc2Cl)c2c1CCCCC/C2=C\c1ccc(F)cc1 | 56
C[C@@H](NC(=O)c1nn(-c2ccc(Cl)cc2Cl)c2c1CCCCC/C2=C\c1ccc(F)cc1)C1CCCCC1 | 86

# input Returns the measured inhibition at 0.2 µM for the input compound. Input: `C[C@@H](NC(=O)c1nn(-c2ccc(Cl)cc2Cl)c2c1CCCCC/C2=C\c1ccc(F)cc1)c1ccccc1`
# output 89

* * *

ASSAYED_SYSTEM: CB2 receptor (Homo sapiens, UniProt P34972)
Construct: expressed in transfected cells; host or cells: SK-N-MC cells, stably transfected with pcDNA3 CB-2 (human)
Sequence (P34972 whole entry): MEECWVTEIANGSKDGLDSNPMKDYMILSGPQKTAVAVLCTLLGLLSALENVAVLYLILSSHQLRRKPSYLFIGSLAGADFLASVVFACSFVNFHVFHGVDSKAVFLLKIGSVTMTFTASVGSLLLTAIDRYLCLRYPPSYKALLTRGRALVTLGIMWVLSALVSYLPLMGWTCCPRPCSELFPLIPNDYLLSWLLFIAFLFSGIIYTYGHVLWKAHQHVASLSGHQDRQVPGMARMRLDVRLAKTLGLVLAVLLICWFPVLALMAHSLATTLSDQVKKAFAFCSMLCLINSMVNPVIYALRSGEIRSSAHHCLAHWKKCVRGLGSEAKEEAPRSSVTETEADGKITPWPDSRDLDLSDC
METHOD_SUMMARY: Functional cell-based CRE β-gal assay, CB2 (adenylate cyclase activity)
CONDITION_SUMMARY: SK-N-MC cells, CRE β-gal, forskolin; agonist; read-out: CB2 Receptor Functional Agonist Activity EC50
METRIC: pEC50
pEC50 field: float, defined as -log10 of concentration (mol/L).

# input Returns the measured pEC50 for the input compound. Input: O=C(N[C@@H](CO)c1ccccc1)c1n[nH]c2c1CCCCCC2Cc1cccc(Cl)c1 (stereo in doubt) [Cpd 23]
# output 7.96

* * *

Each entry below carries its reported EC50.
ASSAYED_SYSTEM: human CB1 receptor (Homo sapiens, UniProt P21554)
Construct: expressed in transfected cells; host or cells: SK-N-MC cells, stably transfected with pcDNA3 CB-1 (human)
Sequence (P21554 whole entry): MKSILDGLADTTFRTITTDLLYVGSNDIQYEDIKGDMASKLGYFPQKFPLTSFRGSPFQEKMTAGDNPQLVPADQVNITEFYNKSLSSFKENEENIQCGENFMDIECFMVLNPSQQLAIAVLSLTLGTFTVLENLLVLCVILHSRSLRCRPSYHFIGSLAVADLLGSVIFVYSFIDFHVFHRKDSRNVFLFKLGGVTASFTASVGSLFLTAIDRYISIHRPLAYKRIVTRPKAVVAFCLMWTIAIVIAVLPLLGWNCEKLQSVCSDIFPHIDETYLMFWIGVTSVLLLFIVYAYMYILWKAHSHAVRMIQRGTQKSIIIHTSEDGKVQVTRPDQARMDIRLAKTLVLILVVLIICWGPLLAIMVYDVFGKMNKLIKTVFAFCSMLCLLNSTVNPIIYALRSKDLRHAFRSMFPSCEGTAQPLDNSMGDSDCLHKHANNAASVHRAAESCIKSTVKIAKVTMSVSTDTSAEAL
METHOD_SUMMARY: Functional cell-based CRE β-gal assay, CB1 (adenylate cyclase activity)
Please reply with the bare figure in µM and do not write the unit itself.

Examples with their reported EC50 follow.
COC[C@H](NC(=O)c1n[nH]c2c1CCCCC[C@@H]2Cc1cccc(Cl)c1)c1ccccc1 (relative stereo) [Cpd 27] | 0.043
O=C(NN1CC2CCCC2C1)c1nn(-c2ccc(Cl)cc2Cl)c2c1CCCCC/C2=C\c1ccc(F)cc1 (stereo not shown) [Cpd 18] | 0.02

Here is another compound to look at.
# input Returns the measured EC50 for the input compound. Input: C[C@@H](NC(=O)c1nn(-c2ccc(Cl)cc2Cl)c2c1CCCCC/C2=C\c1ccc(F)cc1)C1CCCCC1 [Cpd 17]
# output 0.04

* * *

Entries with reported IC50 on human CB1 receptor (Homo sapiens)
Please reply with the bare figure in µM and do not write the unit itself.

Examples with their reported IC50 follow.
C[C@@H](NC(=O)c1nn(-c2ccc(Cl)cc2Cl)c2c1CCCCC/C2=C\c1ccc(F)cc1)c1ccccc1 | 0.008
CC(NC(=O)c1nn(C2CCCCC2)c2c1CCCCCC2)C12CC3CC(CC(C3)C1)C2 (stereo not shown) | 0.3
CCOC(=O)C1(NC(=O)c2nn(C3CCCCC3)c3c2CCCCCC3)CC2CCC1C2 (stereo not shown) | 0.06
O=C(NN1CC2CCCC2C1)c1nn(-c2ccc(Cl)cc2Cl)c2c1CCCCC/C2=C\c1ccc(F)cc1 (stereo not shown) | 0.05
C[C@@H](NC(=O)c1nn(-c2ccc(Cl)cc2Cl)c2c1CCCCC/C2=C\c1ccc(F)cc1)C1CCCCC1 | 0.01
C[C@@H](NC(=O)c1nn(-c2ccc(Cl)cc2Cl)c2c1CCCCC/C2=C\c1ccc(F)cc1)c1ccccn1 | 0.008

# input Returns the measured IC50 for the input molecule. Input: CC12CCC(C1)C(C)(C)C2NC(=O)c1nn(C2CCCCC2)c2c1CCCCCC2 (stereo not shown)
# output 0.04
